# Tested on: NCI-H719 tumor spheroids, viability
# ASSAY_METHOD_TEXT: Anticancer human tumor NCI-H719 cell line growth inhibition;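 also: spheroids exposed to compounds for seven days; percent viability relative to DMSO vehicle control as 100%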
# MEASUREMENT_PARAMETERS: second compound 31.6 µM; first compound 1 µM; stronger effect = lower value; spheroids with HUVEC and MSC
PARAMETER_MEASURED: viability, T/C

Reference set (3 entries):
{"columns": ["COMPOUND", "TEST_TARGET", "PARAMETER_MEASURED", "OBSERVED_MEASUREMENT"],
 "data": [
  ["CC(C)n1c(=O)n(C)c2cnc3cc(F)c(-c4ccc(OCCCN5CCCCC5)nc4)cc3c21 + Cn1nnc2c(C(N)=O)ncn2c1=O", "NCI-H719 tumor spheroids, viability", "viability, T/C", "97.2%"],
  ["[2H]c1nc(C)nc([2H])c1-c1cc(NC[C@@H](C)c2cccc3c(C(=O)NC)ccnc23)ncn1 + Cn1nnc2c(C(N)=O)ncn2c1=O", "NCI-H719 tumor spheroids, viability", "viability, T/C", "104%"],
  ["COc1ccc([C@@H](O)c2cc(-c3ncnc4cc(N5CCOCC5)ccc34)c(F)cc2Cl)nn1 + Cn1nnc2c(C(N)=O)ncn2c1=O", "NCI-H719 tumor spheroids, viability", "viability, T/C", "46.7%"]
]}

(Q) Read off the recorded viability, T/C for Cc1cc(C)c(CNC(=O)c2cc(-c3ccc(CN4CCOCC4)cc3)cc3c2cnn3C2CCCC2)c(=O)[nH]1 + Cn1nnc2c(C(N)=O)ncn2c1=O
(A) 108%

(Q) Read off the recorded viability, T/C for CC1COCCN1c1cc(-c2ccnn2C)c2ccnc(-c3ccn[nH]3)c2n1 (stereo unspecified) + Cn1nnc2c(C(N)=O)ncn2c1=O
(A) 8.01%

(Q) Identify viability, T/C associated with the compound COc1cc(C)[nH]c(=O)c1CN1CCc2c(Cl)cc(C(OC)C3COC3)c(Cl)c2C1=O (stereo unspecified) + Cn1nnc2c(C(N)=O)ncn2c1=O
(A) 125%

Source listed as PubChem BioAssay AID1845212.
